Attribution: the supplement of paper PMC10567573

B1: PTPN9 (parent)
chain: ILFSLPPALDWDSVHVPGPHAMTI

- Variants of: B1
- testDetails: protein stability index of a GFP-peptide fusion (GPS, HEK-293T) (PSI 1-6); higher = more stable;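 further: lentivirally expressed fusions sorted by FACS into six bins by GFP to DsRed ratio, PSI derived from sequencing read proportions per bin multiplied by bin number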
- conditionParameters: c terminus: a fixed tail appended
I would appreciate it if you labelled entries T when protein stability index is 2 or higher, otherwise F.

seqText: ILFSLPPASDWDSVHVPGPHAMTI [L9S]
labelValue: T

seqText: ILFSLPPALDWDSVHVFGPHAMTI [P17F]
labelValue: T

In: In plain terms: is recorded protein stability index at least 2 for ILFSLPPALDWDSVLVPGPHAMTI [H15L] ?
Out: T

In: Okay, and ILFSLPPTLDWDSVHVPGPHAMTI [A8T] ?
Out: T

In: Okay, and ILFSLPPALDVDSVHVPGPHAMTI [W11V] ?
Out: T

In: Okay, and ICFSLPPALDWDSVHVPGPHAMTI [L2C] ?
Out: T

In: Okay, and ILFSLPPALDPDSVHVPGPHAMTI [W11P] ?
Out: T

In: Okay, and TLFSLPPALDWDSVHVPGPHAMTI [I1T] ?
Out: T
